Taken from ChEMBL document CHEMBL4371076.

- system: Sodium channel protein type 9 subunit alpha (Homo sapiens)
- Sequence (Q15858 whole entry): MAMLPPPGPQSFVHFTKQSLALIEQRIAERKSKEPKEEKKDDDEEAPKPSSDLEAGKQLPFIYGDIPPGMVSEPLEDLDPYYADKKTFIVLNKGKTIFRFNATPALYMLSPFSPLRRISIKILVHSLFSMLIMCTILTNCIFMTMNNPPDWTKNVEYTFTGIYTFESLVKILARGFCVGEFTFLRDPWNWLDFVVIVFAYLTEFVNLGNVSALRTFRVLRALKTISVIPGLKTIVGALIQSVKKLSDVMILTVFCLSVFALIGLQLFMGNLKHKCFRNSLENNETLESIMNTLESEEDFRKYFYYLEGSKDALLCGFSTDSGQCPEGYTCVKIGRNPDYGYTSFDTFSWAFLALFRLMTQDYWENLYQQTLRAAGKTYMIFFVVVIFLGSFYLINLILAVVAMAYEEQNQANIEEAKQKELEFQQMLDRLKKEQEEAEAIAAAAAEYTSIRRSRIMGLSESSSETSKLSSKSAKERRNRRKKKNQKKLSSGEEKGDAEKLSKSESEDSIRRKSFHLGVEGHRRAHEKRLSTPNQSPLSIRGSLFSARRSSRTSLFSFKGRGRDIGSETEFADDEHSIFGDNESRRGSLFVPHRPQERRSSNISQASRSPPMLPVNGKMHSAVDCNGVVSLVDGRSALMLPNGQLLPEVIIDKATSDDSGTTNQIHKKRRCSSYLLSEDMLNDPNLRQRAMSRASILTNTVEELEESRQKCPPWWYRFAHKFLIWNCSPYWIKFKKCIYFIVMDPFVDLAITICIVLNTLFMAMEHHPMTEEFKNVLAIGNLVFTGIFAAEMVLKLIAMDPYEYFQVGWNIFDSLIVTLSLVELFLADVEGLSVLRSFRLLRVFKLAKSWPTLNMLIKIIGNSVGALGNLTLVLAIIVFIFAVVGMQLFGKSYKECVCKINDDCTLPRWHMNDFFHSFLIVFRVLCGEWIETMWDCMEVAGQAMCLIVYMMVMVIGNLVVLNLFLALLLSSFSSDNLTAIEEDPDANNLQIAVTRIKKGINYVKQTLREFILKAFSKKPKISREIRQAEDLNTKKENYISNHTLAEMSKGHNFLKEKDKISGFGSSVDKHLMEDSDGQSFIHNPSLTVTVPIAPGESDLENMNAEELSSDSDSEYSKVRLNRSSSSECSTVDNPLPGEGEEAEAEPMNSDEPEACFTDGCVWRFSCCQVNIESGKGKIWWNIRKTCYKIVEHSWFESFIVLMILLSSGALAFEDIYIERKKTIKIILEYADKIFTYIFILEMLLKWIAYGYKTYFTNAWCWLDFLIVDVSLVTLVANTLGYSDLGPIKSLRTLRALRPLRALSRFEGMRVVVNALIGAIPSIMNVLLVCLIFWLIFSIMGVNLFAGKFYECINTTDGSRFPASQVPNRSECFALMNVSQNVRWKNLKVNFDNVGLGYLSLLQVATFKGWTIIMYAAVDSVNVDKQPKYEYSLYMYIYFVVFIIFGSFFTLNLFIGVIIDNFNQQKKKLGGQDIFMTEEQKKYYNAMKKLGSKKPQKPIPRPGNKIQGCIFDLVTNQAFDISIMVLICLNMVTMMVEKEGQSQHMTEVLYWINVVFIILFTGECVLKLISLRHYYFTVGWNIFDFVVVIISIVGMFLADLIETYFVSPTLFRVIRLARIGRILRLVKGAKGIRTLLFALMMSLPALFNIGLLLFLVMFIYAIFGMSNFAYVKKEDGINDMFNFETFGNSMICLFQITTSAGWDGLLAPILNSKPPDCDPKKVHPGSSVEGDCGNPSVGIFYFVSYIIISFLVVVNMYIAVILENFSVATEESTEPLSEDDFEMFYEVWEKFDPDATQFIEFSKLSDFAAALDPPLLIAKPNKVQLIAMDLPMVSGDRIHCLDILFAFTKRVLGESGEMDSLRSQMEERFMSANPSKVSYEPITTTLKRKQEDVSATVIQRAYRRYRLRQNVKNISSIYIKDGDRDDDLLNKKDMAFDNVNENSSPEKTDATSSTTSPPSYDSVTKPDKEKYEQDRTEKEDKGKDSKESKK
- assay-method-text: Inhibition of recombinant human Nav1.7 expressed in HEK293 cells at -70 mV holding potential by patch clamp electrophysiology method
- Type: cell-based
pIC50: −log10 of the molar value.
As shown below, each of these molecules has a reported pIC50 value.
metric-name: pIC50

> print(dat)
                                test.smiles                                    system  metric.name  experimental.value
1  CC(C)Cc1ccc(-c2cn(C)c3cc(C(=O)NS(C)(=O)=O)ccc23)cc1  Sodium channel protein type 9 subunit alpha (Homo sapiens)        pIC50                7.64
2  CC(C)COc1ccc(-c2cn(C)c3cc(C(=O)NS(=O)(=O)C4CC4)c(F)cc23)cn1  Sodium channel protein type 9 subunit alpha (Homo sapiens)        pIC50                7.72
3  CC(C)COc1ncc(-c2cn(C)c3cc(C(=O)NS(=O)(=O)C4CC4)c(F)cc23)cc1Cl  Sodium channel protein type 9 subunit alpha (Homo sapiens)        pIC50                8.48
4  CC(C)COc1ncc(-c2cn(C)c3cc(C(=O)NS(C)(=O)=O)ccc23)cc1Cl  Sodium channel protein type 9 subunit alpha (Homo sapiens)        pIC50                8.10
5  CC(C)COc1ncc(-c2cn(C)c3cc(C(=O)NS(C)(=O)=O)c(F)cc23)cc1Cl  Sodium channel protein type 9 subunit alpha (Homo sapiens)        pIC50                8.96
6  CC(C)COc1ccc(-c2cn(C)c3cc(C(=O)NS(C)(=O)=O)c(F)cc23)cn1  Sodium channel protein type 9 subunit alpha (Homo sapiens)        pIC50                7.60

---

- assay-method-text: Metabolic stability in human liver microsomes assessed as parent compound remaining at 0.5 uM after 10 mins
- Type: ADME, Microsome
- assay-context: read-out: Stability
metric-name: remaining at 10 min, 0.5 µM

> print(dat)
                                test.smiles                  metric.name  experimental.value
1  CC(C)COc1ncc(-c2cn(C)c3cc(C(=O)NS(=O)(=O)C4CC4)c(F)cc23)cc1Cl  remaining at 10 min, 0.5 µM                100%
2  Cn1cc(-c2ccc(C(F)(F)F)cc2)c2cc(F)c(C(=O)NS(C)(=O)=O)cc21  remaining at 10 min, 0.5 µM                 97%
3  CC(C)COc1ncc(-c2nn(C)c3cc(C(=O)NS(C)(=O)=O)ccc23)cc1Cl  remaining at 10 min, 0.5 µM                100%
4  Cn1cc(-c2ccc(C(F)F)cc2)c2cc(F)c(C(=O)NS(=O)(=O)C3CC3)cc21  remaining at 10 min, 0.5 µM                 93%
5  CC(C)COc1ccc(-c2cn(C)c3cc(C(=O)NS(=O)(=O)C4CC4)c(F)cc23)cn1  remaining at 10 min, 0.5 µM                100%

---

- assay-method-text: Metabolic stability in rat liver microsomes assessed as parent compound remaining at 0.5 uM after 10 mins
- Assay type: ADME, Microsome
- assay-context: read-out: Stability
As shown below, each of these compounds has a reported remaining at 10 min, 0.5 µM value.
metric-name: remaining at 10 min, 0.5 µM (%)

> print(dat)
                                test.smiles                  metric.name  experimental.value
1  CC(C)COc1ncc(-c2cn(C)c3cc(C(=O)NS(C)(=O)=O)c(F)cc23)cc1Cl  remaining at 10 min, 0.5 µM                  85
2  CC(C)COc1ccc(-c2cn(C)c3cc(C(=O)NS(=O)(=O)C4CC4)c(F)cc23)cn1  remaining at 10 min, 0.5 µM                  78
3  Cn1cc(-c2ccc(C(F)(F)F)cc2)c2cc(F)c(C(=O)NS(=O)(=O)C3CC3)cc21  remaining at 10 min, 0.5 µM                 100
4  CC(C)COc1ccc(-c2cn(C)c3cc(C(=O)NS(C)(=O)=O)c(F)cc23)cn1  remaining at 10 min, 0.5 µM                  98
5  CC(C)COc1ncc(-c2cn(C)c3cc(C(=O)NS(=O)(=O)C4CC4)c(F)cc23)cc1Cl  remaining at 10 min, 0.5 µM                  37
6  Cn1cc(-c2ccc(C(F)F)cc2)c2cc(F)c(C(=O)NS(=O)(=O)C3CC3)cc21  remaining at 10 min, 0.5 µM                  82

---

- system: Cytochrome P450 2D6 (Homo sapiens, UniProt P10635)
- Sequence (P10635 whole entry): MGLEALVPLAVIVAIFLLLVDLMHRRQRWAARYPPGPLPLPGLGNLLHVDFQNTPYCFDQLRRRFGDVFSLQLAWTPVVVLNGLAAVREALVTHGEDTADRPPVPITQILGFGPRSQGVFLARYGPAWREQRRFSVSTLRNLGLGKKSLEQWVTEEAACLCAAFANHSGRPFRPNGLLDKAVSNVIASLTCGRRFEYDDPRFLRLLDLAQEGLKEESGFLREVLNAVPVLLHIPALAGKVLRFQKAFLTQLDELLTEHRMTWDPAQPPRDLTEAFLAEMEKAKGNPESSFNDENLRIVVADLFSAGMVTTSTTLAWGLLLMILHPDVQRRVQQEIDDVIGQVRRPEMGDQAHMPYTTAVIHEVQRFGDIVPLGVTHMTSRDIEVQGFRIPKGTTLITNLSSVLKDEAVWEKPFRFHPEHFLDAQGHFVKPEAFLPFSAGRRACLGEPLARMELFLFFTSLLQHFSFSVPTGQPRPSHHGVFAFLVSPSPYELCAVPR
pIC50: −log10 of the molar value.
metric-name: pIC50

> print(dat)
                                test.smiles  experimental.value
1  CC(C)COc1ncc(-c2cn(C)c3cc(C(=O)NS(C)(=O)=O)ccc23)cc1Cl              < 4.40
2  CC(C)COc1ccc(-c2cn(C)c3cc(C(=O)NS(C)(=O)=O)c(F)cc23)cn1              < 4.40

---

As shown below, each of these compounds has a reported fraction unbound value.
- assay-method-text: Fraction unbound in mouse plasma
- Type: ADME, cell-free
metric-name: fraction unbound

> print(dat)
                                 test.smiles       metric.name  qualifying.sign  experimental.value
 1  CC(C)COc1ccc(-c2cn(C)c3cc(C(=O)NS(C)(=O)=O)c(F)cc23)cn1  fraction unbound                =               0.014
 2  CC(C)COc1ncc(-c2cn(C)c3cc(C(=O)NS(=O)(=O)C4CC4)c(F)cc23)cc1Cl  fraction unbound                =               0.002
 3  CC(C)COc1ncc(-c2cn(C)c3cc(C(=O)NS(C)(=O)=O)ccc23)cc1Cl  fraction unbound                =               0.002
 4  Cn1cc(-c2cnc(OCC3CC3)c(Cl)c2)c2ccc(C(=O)NS(=O)(=O)C3CC3)cc21  fraction unbound                =               0.002
 5  CC(C)Cc1ccc(-c2cn(C)c3cc(C(=O)NS(C)(=O)=O)ccc23)cc1  fraction unbound                =               0.003
 6  Cn1cc(-c2ccc(C(F)(F)F)cc2)c2cc(F)c(C(=O)NS(C)(=O)=O)cc21  fraction unbound                =               0.005
 7  Cn1cc(-c2ccc(C(F)(F)F)cc2)c2cc(F)c(C(=O)NS(=O)(=O)C3CC3)cc21  fraction unbound                =              0.0035
 8  CC(C)COc1ccc(-c2cn(C)c3cc(C(=O)NS(=O)(=O)C4CC4)c(F)cc23)cn1  fraction unbound                =               0.006
 9  Cn1nc(-c2ccc(C(F)(F)F)cc2)c2cc(F)c(C(=O)NS(=O)(=O)C3CC3)cc21  fraction unbound                =               0.008
10  Cn1cc(-c2ccc(C(F)(F)F)cc2)c2ccc(C(=O)NS(C)(=O)=O)cc21  fraction unbound                <               0.001

---

- assay-method-text: Permeability of the compound at pH 5.5 by PAMPA
- Format: ADME
- assay-context: read-out: permeability
// classify: if (Papp < 50 ×10⁻⁶ cm/s) 1 (yes) else 0 (no)

> print(dat)
                                 test.smiles  label.value
 1  CC(C)COc1ccc(-c2nn(C)c3cc(C(=O)NS(=O)(=O)C4CC4)c(F)cc23)cn1       0 (no)
 2  CC(C)COc1ncc(-c2nn(C)c3cc(C(=O)NS(C)(=O)=O)ccc23)cc1Cl       0 (no)
 3  CC(C)COc1ncc(-c2cn(C)c3cc(C(=O)NS(=O)(=O)C4CC4)c(F)cc23)cc1Cl      1 (yes)
 4  Cn1cc(-c2ccc(C(F)(F)F)cc2)c2cc(F)c(C(=O)NS(=O)(=O)C3CC3)cc21       0 (no)
 5  Cn1cc(-c2ccc(C(F)F)cc2)c2cc(F)c(C(=O)NS(=O)(=O)C3CC3)cc21      1 (yes)
 6  Cn1cc(-c2ccc(C(F)(F)F)cc2)c2ccc(C(=O)NS(=O)(=O)C3CC3)cc21       0 (no)
 7  CC(C)COc1ccc(-c2cn(C)c3cc(C(=O)NS(=O)(=O)C4CC4)c(F)cc23)cn1       0 (no)
 8  Cn1cc(-c2ccc(C(F)(F)F)cc2)c2ccc(C(=O)NS(C)(=O)=O)cc21       0 (no)
 9  Cn1nc(-c2ccc(C(F)(F)F)cc2)c2cc(F)c(C(=O)NS(=O)(=O)C3CC3)cc21       0 (no)
10  Cn1cc(-c2ccc(C(F)(F)F)cc2)c2cc(F)c(C(=O)NS(C)(=O)=O)cc21       0 (no)
11  CC(C)COc1ncc(-c2cn(C)c3cc(C(=O)NS(C)(=O)=O)ccc23)cc1Cl      1 (yes)
12  CC(C)COc1ccc(-c2cn(C)c3cc(C(=O)NS(C)(=O)=O)c(F)cc23)cn1       0 (no)
